molecular target: Grh (UniProt P13002 551-1333); test: EMSA; EMSA, 20 ul, 30 min, room temperature; 5X buffer as printed: 20% glycerol, 1 mg/ml BSA, 2.5 mM EDTA, '50mM 1M tris' pH 7.5, 50 mM KCl, 5 mM MgCl2, 2.5 mM DTT, 90 ug/ml poly(dI-dC); proteins 100-200 ng; settings: protein: recombinant; tags: 6xHis; chain copies: 2
Sequence (P13002 551-1333): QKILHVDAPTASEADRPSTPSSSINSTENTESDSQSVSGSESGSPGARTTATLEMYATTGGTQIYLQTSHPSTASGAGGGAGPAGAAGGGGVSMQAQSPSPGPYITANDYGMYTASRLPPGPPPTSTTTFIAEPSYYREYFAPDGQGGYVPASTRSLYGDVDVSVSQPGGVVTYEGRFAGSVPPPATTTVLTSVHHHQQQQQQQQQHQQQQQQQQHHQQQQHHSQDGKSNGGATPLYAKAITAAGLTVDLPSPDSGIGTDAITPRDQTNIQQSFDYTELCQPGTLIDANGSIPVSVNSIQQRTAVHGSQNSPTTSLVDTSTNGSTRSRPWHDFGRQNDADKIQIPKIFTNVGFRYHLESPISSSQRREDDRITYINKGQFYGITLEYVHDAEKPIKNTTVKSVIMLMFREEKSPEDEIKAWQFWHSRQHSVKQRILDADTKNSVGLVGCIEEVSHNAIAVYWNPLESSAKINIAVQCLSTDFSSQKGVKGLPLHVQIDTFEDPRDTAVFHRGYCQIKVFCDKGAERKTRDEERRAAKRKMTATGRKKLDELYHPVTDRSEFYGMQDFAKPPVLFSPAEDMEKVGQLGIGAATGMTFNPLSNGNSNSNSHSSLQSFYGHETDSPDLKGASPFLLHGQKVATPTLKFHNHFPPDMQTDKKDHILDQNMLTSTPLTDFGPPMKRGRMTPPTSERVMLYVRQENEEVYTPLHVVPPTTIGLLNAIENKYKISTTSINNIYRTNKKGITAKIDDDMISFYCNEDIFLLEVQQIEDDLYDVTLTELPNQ
Metric: binding result

Example entries and their recorded answers appear below.
motif-31 (dsDNA) DNA 1: ACACAATTTTCTAAGATCCACTGGAATCGGTATGCCGATAGTT DNA 2: AACTATCGGCATACCGATTCCAGTGGATCTTAGAAAATTGTGT ... binds
motif-27 (dsDNA) DNA 1: TATATGTGGAACCACCTTGAAAGTCTACTGCCTGATTAGT DNA 2: ACTAATCAGGCAGTAGACTTTCAAGGTGGTTCCACATATA ... binds
motif-25 (dsDNA) DNA 1: CGGGATATCACCAAACCATAGAAAATTTGCGGTACA DNA 2: TGTACCGCAAATTTTCTATGGTTTGGTGATATCCCG ... binds
motif-30 Hox2 mutant (dsDNA) DNA 1: GAAACAGGATAACCAGGACTAATCC DNA 2: GGATTAGTCCTGGTTATCCTGTTTC ... binds
motif-32 (dsDNA) DNA 1: TTGCATGTGCGGATATATATATGTGGAACCACCTTG DNA 2: CAAGGTGGTTCCACATATATATATCCGCACATGCAA ... binds

Provide reported binding result for each item, in the same order as listed.
1. motif-30 WT (dsDNA) DNA 1: GAAACAGGATAACCATAACTAATCC DNA 2: GGATTAGTTATGGTTATCCTGTTTC
2. motif-33 (dsDNA) DNA 1: TACTGCCTGATTAGTGTAAATAATTGCCAGTCCTTG DNA 2: CAAGGACTGGCAATTATTTACACTAATCAGGCAGTA
3. motif-23 (dsDNA) DNA 1: CTATTATCACTATTGCTTTGCTTCCTCAAAACCTTCATTCGA DNA 2: TCGAATGAAGGTTTTGAGGAAGCAAAGCAATAGTGATAATAG

["binds", "binds", "binds"]
